Catalogue of IC50 readings, one per entry.
Biological target: L-Type Calcium Channels
Test: L-type calcium channels: inhibition of binding of [3H]nitrendipine to rat cerebral cortex membranes
Conditions: read-out: L-type Ca2+ IC50 (μM) (extrapolated from 10 μM inh'n); extrapolated assuming binding slope 1.0
parameter: IC50

>>> obs_value("N=c1nc(N)c(-c2cccc(Cl)c2Cl)nn1CC(F)(F)F")
"> 190 µM"
>>> obs_value("N=c1nc(N)c(-c2ccccc2Oc2ccccc2)nn1CC(F)(F)F")
"> 190 µM"
>>> obs_value("CCc1nc(N)nc(N)c1-c1ccc(Cl)cc1 [CEN-48, reference compound]")
"> 190 µM"
>>> obs_value("N=c1nc(N)c(-c2cc(Cl)cc(Cl)c2Cl)nn1CC(F)F")
"> 190 µM"
>>> obs_value("Nc1nnc(-c2cc(C(F)(F)F)cc(C(F)(F)F)c2)c(N)n1")
"> 190 µM"

---

Counter-ions that a name gives are not always drawn.
Each entry below lists one item and its recorded melting point value.
parameter: melting point

>>> obs_value("Cn1nc(-c2ccc3c(c2)OC(F)(F)O3)c(N)nc1=N")
"297 to 298 °C"
>>> obs_value("Nc1nnc(-c2cc(F)c(F)cc2Cl)c(N)n1")
"240 to 242 °C"
>>> obs_value("CCn1nc(-c2cccc(C(F)(F)F)c2Cl)c(N)nc1=N (as salt: methanesulphonate)")
"207 to 209 °C"
>>> obs_value("CCn1nc(-c2ccc3ccccc3c2)c(N)nc1=N (as salt: methanesulfonate)")
"175 to 177 °C"
>>> obs_value("CCn1nc(-c2cccs2)c(N)nc1=N (as salt: methanesulfonate)")
"194 to 196 °C"

---

As shown below, each of these molecules has a reported inhibition at 99 µM value.
Target: DiHydroFolate Reductase (DHFR) (Rattus norvegicus, UniProt Q920D2)
Construct: from tissue; host or cells: rat liver homogenate supernatant
Sequence (Q920D2 whole entry): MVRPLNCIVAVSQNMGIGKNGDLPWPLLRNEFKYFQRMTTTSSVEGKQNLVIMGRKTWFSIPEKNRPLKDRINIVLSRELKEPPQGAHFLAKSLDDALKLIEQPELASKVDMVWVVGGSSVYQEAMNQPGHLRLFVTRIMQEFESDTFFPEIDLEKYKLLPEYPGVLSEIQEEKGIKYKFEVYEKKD
Test: Inhibition of binding of [3H]methotrexate to rat liver homogenate supernatant
Conditions: read-out: [3H]mtx binding % inhibition (* 99 μM, *** uses fresh batch of supernatant), 99 μM; fresh batch of supernatant
Procedure: All steps were carried out at 4° (or on ice). Freshly dissected rat liver was dissected into 0.25M ice-cold Sucrose and subsequently homogenised (U-turrax) in 50 mM pH 6.0 phosphate buffer (10 ml/g tissue) containing 15 mM Dithiothreitol. The resulting homogenate was centrifuged@47,500×g for 20 min and supernatant (filtered through cotton wool to remove fatty lumps) stored @ −80° before use (Rothenberg et al). […]
parameter: inhibition at 99 µM

>>> obs_value("COc1cc(OC)cc(-c2nnc(N)nc2N)c1")
"91%"
>>> obs_value("Nc1nnc(-c2ccco2)c(-c2ccco2)n1")
"41%"
>>> obs_value("Cn1nc(-c2sc(Cl)c(Cl)c2Cl)c(N)nc1=N")
"-6%"
>>> obs_value("CCn1nc(-c2sc(Cl)c(Cl)c2Cl)c(N)nc1=N")
"-2%"

---

Target: DiHydroFolate Reductase (DHFR) (Rattus norvegicus)
Construct: from tissue; host or cells: rat liver homogenate supernatant
Assay: Inhibition of binding of [3H]methotrexate to rat liver homogenate supernatant
Conditions: 125 μM; read-out: [3H]mtx binding (% inhibition @ 125 μM)
Structures can show the parent of a compound that is named as a salt.
// inhibition at 125 µM lookup, one value per entry
parameter: inhibition at 125 µM (%)

>>> obs_value("COc1cc(-c2nn(C)c(=N)nc2N)cc(OC)c1OC [CEN-101]")
65
>>> obs_value("Nc1nnc(-c2cc(Br)c(Br)s2)c(N)n1 [CEN-122]")
86
>>> obs_value("Nc1nnc(-c2ccccc2OCc2ccccc2)c(N)n1 [CEN-160]")
-11
>>> obs_value("CCn1nc(-c2ccc3ccccc3c2)c(N)nc1=N [CEN-75]")
5
>>> obs_value("CCn1nc(-c2cccc(C(F)(F)F)c2Cl)c(N)nc1=N [CEN-178]")
27
>>> obs_value("Nc1nnc(-c2cccc(C(F)(F)F)c2Cl)c(N)n1 [CEN-176]")
55
>>> obs_value("Cn1nc(-c2cccs2)c(N)nc1=N [CEN-61]")
87
>>> obs_value("Nc1nnc(-c2cccc(Cl)n2)c(N)n1 [CEN-166]")
88
>>> obs_value("Cn1nc(-c2cc(Br)c(Br)o2)c(N)nc1=N [CEN-135]")
89
>>> obs_value("COc1cc(-c2nnc(N)nc2N)c(OC)c2ccccc12 [CEN-151]")
76
>>> obs_value("Nc1cnc(-c2cccc(Cl)c2Cl)c(N)n1 [CEN-87]")
-5
>>> obs_value("Cn1nc(-c2ccc(Oc3ccc(-c4nn(C)c(=N)nc4N)cc3)cc2)c(N)nc1=N [CEN-116]")
70
>>> obs_value("Nc1nnc(-c2cccc(Oc3ccccc3)c2)c(N)n1 [CEN-84]")
-4
>>> obs_value("C[n+]1cc(N)nc(N)c1-c1cc(Cl)cc(Cl)c1Cl [CEN-90]")
53
>>> obs_value("Nc1nnc(-c2ccc(F)c(Oc3ccccc3)c2)c(N)n1 [CEN-184, tosylate]")
104
>>> obs_value("Nc1nnc(-c2ccccc2Oc2ccccc2)c(N)n1 [CEN-97]")
101
>>> obs_value("Nc1nnc(-c2cccnc2Cl)c(N)n1 [CEN-164]")
0
>>> obs_value("Nc1nnc(-c2nc(Cl)ccc2Cl)c(N)n1 [CEN-188]")
76
>>> obs_value("COc1ccc(-c2nnc(N)nc2N)cc1OC [CEN-115]")
61
>>> obs_value("Cn1nc(-c2cccc3ccccc23)c(N)nc1=N [CEN-78]")
9
